Molecular target: Muscarinic acetylcholine receptor
Assay: Binding activity to the muscarinic acetylcholine receptor in rat cortex, assayed using [3H]CD as a radioligand.
Type: tissue-based
Measured metric: Ki (nM)
Dear colleague, please return just the value in nM, with no unit written.

// known answers, use as guide
CN(C)CC#C[C@@H]1CCCN1.Cl.Cl
37350
CCOC(=O)N1CCC[C@H]1C#CCN1CCCC1
610
O=C1CCCN1CC#CCN1CCCC1 [OXOTREMORINE]
0.5

Q: Recorded Ki of CC(C)(C)OC(=O)N1CCC[C@@H]1C#CCN1CCCC1 , please.
Result: 220

Q: Another molecule to look at: O=CN1CCC[C@@H]1C#CCN1CCCC1
Result: 3350

Q: Also check CN(C)CC#C[C@H]1CCCN1.Cl.Cl
Result: 37080

Q: Cool, now CC(=O)N1CCC[C@H]1C#CCN(C)C
Result: 15500

Q: Also need O=CN1CCC[C@H]1C#CCN1CCCC1 , thanks.
Result: 4880

Q: What about this molecule? CC(=O)N1CCC[C@@H]1C#CCN(C)C
Result: 1650

Q: Please answer likewise for CS(=O)(=O)N1CCC[C@H]1C#CCN1CCCC1.Cl
Result: 3920

Q: What about this molecule? C(#C[C@H]1CCCN1)CN1CCCC1.Cl.Cl
Result: 1280

====

Target: Muscarinic acetylcholine receptor M2 (Rattus norvegicus) (UniProt P10980)
Sequence (P10980 whole entry): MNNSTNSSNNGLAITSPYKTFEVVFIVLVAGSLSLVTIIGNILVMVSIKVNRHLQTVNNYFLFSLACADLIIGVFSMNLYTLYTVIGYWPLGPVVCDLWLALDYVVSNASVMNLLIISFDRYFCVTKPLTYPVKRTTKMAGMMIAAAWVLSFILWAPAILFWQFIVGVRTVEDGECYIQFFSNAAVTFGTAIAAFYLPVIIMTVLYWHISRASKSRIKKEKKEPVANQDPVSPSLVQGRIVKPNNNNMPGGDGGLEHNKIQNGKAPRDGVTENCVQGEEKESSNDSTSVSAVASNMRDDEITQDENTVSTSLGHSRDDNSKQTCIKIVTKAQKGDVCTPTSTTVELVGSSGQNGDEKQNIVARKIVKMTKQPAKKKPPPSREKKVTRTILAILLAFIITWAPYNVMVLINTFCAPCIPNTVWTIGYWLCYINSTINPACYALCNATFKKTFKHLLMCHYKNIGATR
Test: Muscarinic 2 receptor agonistic activity was determined as the selectivity ratio of Ki against [3H]QNB+ Gpp(NH)p to that of [3H]QNB
Format: functional
Measured metric: Ratio
Number only, please.

O=CN1CCC[C@H]1C#CCN1CCCC1
10
CC(=O)N1CCC[C@@H]1C#CCN1CCCC1.Cl
2.7
CN(C)CC#C[C@H]1CCCN1C(=O)OC(C)(C)C
3.8

Q: What value of Ratio has been reported for the following compound? O=CN1CCC[C@@H]1C#CCN1CCCC1
Result: 1

Q: What about CN(C)CC#C[C@@H]1CCCN1C(=O)OC(C)(C)C ?
Result: 1.1

Q: Also CC(=O)N1CCC[C@H]1C#CCN1CCCC1.Cl , if possible.
Result: 1.5

Q: Cool, now CS(=O)(=O)N1CCC[C@@H]1C#CCN1CCCC1.Cl
Result: 2.3

Q: Proceed to Cl.O=C(N1CCC[C@H]1C#CCN1CCCC1)C(F)(F)F
Result: 1.4

Q: Record: CCOC(=O)N1CCC[C@@H]1C#CCN1CCCC1
Result: 1.1

====

Molecular target: Muscarinic acetylcholine receptor
Assay: Binding activity to muscarinic acetylcholine receptor in rat heart, assayed using [3H]QNB as a radioligand in the presence of Gpp(NH)p.
Criterion: Ki strictly less than 10 µM. Met: Satisfied. Not met: Not satisfied.

CC(=O)N1CCC[C@H]1C#CCN1CCCC1.Cl
Not satisfied
CS(=O)(=O)N1CCC[C@@H]1C#CCN1CCCC1.Cl
Not satisfied
CC(=O)N1CCC[C@@H]1C#CCN(C)C
Not satisfied
CN(C)CC#C[C@@H]1CCCN1.Cl.Cl
Not satisfied

Q: Given C(#C[C@@H]1CCCN1)CN1CCCC1.Cl.Cl , is recorded Ki strictly lower than 10 µM?
Result: Satisfied

Q: Try CN(C)CC#C[C@H]1CCCN1.Cl.Cl next.
Result: Not satisfied

Q: Can you handle Cl.O=C(N1CCC[C@H]1C#CCN1CCCC1)C(F)(F)F next?
Result: Satisfied
